The reported measurements were obtained from patent US12281122B1.

- Tested on: T47D (PI3Kα-H1047R) cell line
- test details: HTRF phospho-AKT(S473) cell assay in T47D cells
- Type: cell-based, human
- test parameters: Homo sapiens; HTRF phospho-AKT(S473), T47D (PI3Kα-H1047R) cells, 2 hours compound incubation
pIC50: −log10 of the molar value.
A collection of compounds and their measured pIC50

These recorded examples may help you get a feel for the data.
>>> result("Cc1cc([C@@H](C)Nc2ccc(Cl)nc2C(=O)NS(C)(=O)=O)c2nc(N3C[C@@H]4[C@H](C3)[C@H]4c3ccc(C)nn3)n(C)c(=O)c2c1")
"> 6.60"
>>> result("Cc1cc([C@@H](C)Nc2ccc(Cl)nc2C(=O)NS(C)(=O)=O)c2nc(N3CCC(n4nncc4C)CC3)n(C)c(=O)c2c1")
"6.30 to 6.60"
>>> result("Cc1cc([C@@H](C)Nc2ccc(Cl)nc2C(=O)NS(C)(=O)=O)c2nc(-c3ccc4c(c3)C(=O)N(C)C4)n(C)c(=O)c2c1")
"6.30 to 6.60"
>>> result("Cc1cc([C@@H](C)Nc2ccc(Cl)nc2C(=O)NS(C)(=O)=O)c2nc(N3CC[C@H](Nc4ncc(Cl)cn4)C3)n(C)c(=O)c2c1")
"6.30 to 6.60"
>>> result("Cc1cc([C@@H](C)Nc2ccc(Cl)nc2C(=O)NS(C)(=O)=O)c2nc(N3C[C@@H]4[C@H](C3)[C@H]4c3cnc(C)o3)n(C)c(=O)c2c1")
"> 6.60"

# next compound below
I have this compound here, Cc1cc([C@@H](C)Nc2ccc(Cl)nc2C(=O)NS(C)(=O)=O)c2nc(-c3ccc4c(cnn4C)c3)n(C)c(=O)c2c1 , and I need its recorded pIC50. > 6.60
